assay: Physical stability: storage under humidity/temperature, form checked by XRPD; assay type: physicochemical; settings: 25° C./60% RH, one week, unsealed
readoutKind: form change (XRPD overlay)

| compound | experimentalResult |
| --- | --- |
| CC(C)c1ccccc1[C@@H]1CCCN1C1CC2(CCN(c3ccc(C(=O)NS(=O)(=O)c4ccc(NCC5CCC(C)(O)CC5)c([N+](=O)[O-])c4)c(Oc4cnc5[nH]ccc5c4)c3)CC2)C1 (stereo partly drawn) [Form B] | no form change |
| CC(C)c1ccccc1[C@@H]1CCCN1C1CC2(CCN(c3ccc(C(=O)NS(=O)(=O)c4ccc(NCC5CCC(C)(O)CC5)c([N+](=O)[O-])c4)c(Oc4cnc5[nH]ccc5c4)c3)CC2)C1 (stereo partly drawn) [Form M] | no form change |
| CC(C)c1ccccc1[C@@H]1CCCN1C1CC2(CCN(c3ccc(C(=O)NS(=O)(=O)c4ccc(NCC5CCC(C)(O)CC5)c([N+](=O)[O-])c4)c(Oc4cnc5[nH]ccc5c4)c3)CC2)C1 (stereo partly drawn) [Form S] | no form change |

* * *

Experiment: Physical stability: storage under humidity/temperature, form checked by XRPD
Assay type: physicochemical
Conditions: 80° C., sealed, 24 hrs
Method: To evaluate the physicochemical stability, store 1˜3 mg of Forms B, S, M, R, F, H and N samples were stored under 25° C./60% RH or 40° C./75% RH conditions for one week (unsealed) or 80° C. condition for 24 hrs (sealed).
readoutKind: form change (XRPD overlay)

| molecule | experimentalResult |
| --- | --- |
| CC(C)c1ccccc1[C@@H]1CCCN1C1CC2(CCN(c3ccc(C(=O)NS(=O)(=O)c4ccc(NCC5CCC(C)(O)CC5)c([N+](=O)[O-])c4)c(Oc4cnc5[nH]ccc5c4)c3)CC2)C1 (stereo partly shown) [Form S] | no form change |
| CC(C)c1ccccc1[C@@H]1CCCN1C1CC2(CCN(c3ccc(C(=O)NS(=O)(=O)c4ccc(NCC5CCC(C)(O)CC5)c([N+](=O)[O-])c4)c(Oc4cnc5[nH]ccc5c4)c3)CC2)C1 (stereo partly shown) [Form B] | no form change |
| CC(C)c1ccccc1[C@@H]1CCCN1C1CC2(CCN(c3ccc(C(=O)NS(=O)(=O)c4ccc(NCC5CCC(C)(O)CC5)c([N+](=O)[O-])c4)c(Oc4cnc5[nH]ccc5c4)c3)CC2)C1 (stereo partly shown) [Form M] | no form change |

* * *

assay: Physical stability: storage under humidity/temperature, form checked by XRPD; assay type: physicochemical; conditions: 40° C./75% RH, one week, unsealed

| molecule | form change (XRPD overlay) |
| --- | --- |
| CC(C)c1ccccc1[C@@H]1CCCN1C1CC2(CCN(c3ccc(C(=O)NS(=O)(=O)c4ccc(NCC5CCC(C)(O)CC5)c([N+](=O)[O-])c4)c(Oc4cnc5[nH]ccc5c4)c3)CC2)C1 (stereo partly shown) [Form B] | no form change |
| CC(C)c1ccccc1[C@@H]1CCCN1C1CC2(CCN(c3ccc(C(=O)NS(=O)(=O)c4ccc(NCC5CCC(C)(O)CC5)c([N+](=O)[O-])c4)c(Oc4cnc5[nH]ccc5c4)c3)CC2)C1 (stereo partly shown) [Form H] | no form change |
| CC(C)c1ccccc1[C@@H]1CCCN1C1CC2(CCN(c3ccc(C(=O)NS(=O)(=O)c4ccc(NCC5CCC(C)(O)CC5)c([N+](=O)[O-])c4)c(Oc4cnc5[nH]ccc5c4)c3)CC2)C1 (stereo partly shown) [Form M] | no form change |
| CC(C)c1ccccc1[C@@H]1CCCN1C1CC2(CCN(c3ccc(C(=O)NS(=O)(=O)c4ccc(NCC5CCC(C)(O)CC5)c([N+](=O)[O-])c4)c(Oc4cnc5[nH]ccc5c4)c3)CC2)C1 (stereo partly shown) [Form S] | no form change |
